Molecular target: tandem tudor domain (TTD) of UHRF1
Assay: AlphaScreen or HTRF
No end group written: not given here. Me3 = tri-methyl on lysine side chain
Below, each of the binders is paired with its reported pIC50 value.
Interpret pIC50 as the negative base-10 log of the concentration measured in mol/L.

INSERT INTO assay_data (binder, observed_property, observed_value) VALUES
  ('ARTK(Me3)QTARKSTGEW [H3K4me3 competition peptide (low affinity competitor)]', 'pIC50', 4.02);

Proceeding to the next binder to report its pIC50.
Kindly indicate its recorded pIC50. Item: ARTKQTARKSTGEW (here or on the partner: trimethyl-lysine at K9) [H3K9me3 competition peptide (high affinity competitor)] 5.22
